List of Kd values.
# System: T1, B. thuringiensis serovar israelensis LexA (Bacillus thuringiensis serovar …, UniProt A0RH75 1-206)
# T1 chain: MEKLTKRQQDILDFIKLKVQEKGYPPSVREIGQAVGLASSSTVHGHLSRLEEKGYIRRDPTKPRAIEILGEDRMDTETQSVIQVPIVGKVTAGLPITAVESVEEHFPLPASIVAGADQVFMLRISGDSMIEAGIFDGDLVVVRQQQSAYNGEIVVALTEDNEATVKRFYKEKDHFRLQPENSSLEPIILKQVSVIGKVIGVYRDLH
# Assay comment: SPR

Binder	Kd [nM]
MRDKLLDFIIELSQSSKQVVAKDYVIDRLMQVTKEDYKEMEKKTEGKKN (natural protein) [tectiviral gp7 homolog from B. mycoides VDm034 phage Lima]	185
MRDKLLDFIIELSQSSKQVVSKSYVIDRLMQVTKEDYKELEKNVEGKKDD (natural protein) [gp7 protein of GIL01 phage]	169
